Target: T1, Hse1, P38753
T1 sequence (P38753 208-285, looked up): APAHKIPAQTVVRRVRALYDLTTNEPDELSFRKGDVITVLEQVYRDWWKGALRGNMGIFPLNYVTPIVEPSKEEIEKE
Test: SPOT array
Conditions: median of control spots 1727
Could you please classify the records by SPOT intensity using these ranges: A = under 1, B = from 1 up to 8, C = 8 and over

Pick a category. Item: VNFRRIPTGPDSPPT
B

Another binder to check: TTAPALPSLPPPPLL
A

Follow-up entry: EVTPKVPERPSRRKT
C

Likewise for KDKSRPPRPPPKPLH ?
C

What do we get for RKLRTVPGVPLIHLT ?
A

Next up: GDHPKGPPPPPPPDE
A

And the next one, SSSSTPPTLPPRRIE ?
C

Next binder up: AVPPPPPPPPLPESL
A

Would you mind doing HHNRRKPLEVYFKAT as well?
B

Input RSKRLFPVRPMATAH
C

Further, for KNPRRQLQIPRQQPS ?
B

How about this binder: QRIRKIPGIPLMSVG
B

Next entry: RSRRSSFAYPQQVAI
B

Values compiled from paper PMC2756588.
